Target: T1, M1′ peptide 7 (human)
T1 peptide: GQQQGLPRAAGGSVP
Test: ELISA on coated antigen, relative OD450/650
Quantity kind: binding result

Binder: murine anti-IgE/M1′ antibody 26A11 (antibody, V domains shown, mIgG1 hybridoma antibody; also called mu26A11; 26A11 mIgG1) VH: EVQLQQSGPELVKPGASVKMSCKASGYTFTDYYMMWVKQSHGKSLEWIGDINPNNYDTSYNQKFKGKATLTVDKSSSTAYIQLNSLTSEDSAVYYCASKAYWGQGTLVTVSA VL: DIQMTQTTSSLSASLGDRVTITCRSSQDISNSLNWYQQKPDGPVKLLIYSTSRLHSGVPSRFSGSGSGTDYSLTISNLEQEDLATYFCQQGHTLPWTFGGGTKVEIKR
Readout value: binds
--
Binder: humanized anti-IgE/M1′ antibody 7A6.v1 (antibody, V domains shown, direct CDR graft, huIgG1; also called 7A6v1 huIgG1; 7A67v1 [sic]) VH: EVQLVESGGGLVQPGGSLRLSCAASGYTFIDYEMHWVRQAPGKGLEWVGAIDPETGTTAYNQKFKGRFTISADTSKNTAYLQMNSLRAEDTAVYYCTRLRPHYDYDNAMDSWGQGTLVTVSS VL: DIQMTQSPSSLSASVGDRVTITCKSSQTLLYSTNQKNYLAWYQQKPGKAPKLLIYWASTRESGVPSRFSGSGSGTDFTLTISSLQPEDFATYYCQQYYSYPYTFGQGTKVEIKR
Readout value: no binding
--
Binder: humanized anti-IgE/M1′ antibody 26A11.v6 (antibody, V domains shown, huIgG1; also called 26A11v6 huIgG1) VH: EVQLVESGGGLVQPGGSLRLSCAASGYTFTDYYIMWVRQAPGKGLEWVGDINPNNYDTSYNQKFKGRFTISADTSKNTAYLQMNSLRAEDTAVYYCASKAYWGQGTLVTVSS VL: DIQMTQSPSSLSASVGDRVTITCRSSQDISNYLNWYQQKPGKAPKLLIYSTSRLHSGVPSRFSGSGSGTDFTLTISSLQPEDFATYYCQQGHTLPWTFGQGTKVEIKR
Readout value: binds
--
Binder: humanized anti-IgE/M1′ antibody 47H4.v5 (antibody, V domains shown, huIgG1; also called 47H4v5 huIgG1; 47H5 v.5) VH: EVQLVESGGGLVQPGGSLRLSCAASGFTFSDYGIAWVRQAPGKGLEWVAFISDLAYTIYYADTVTGRFTISRDNSKNTLYLQMNSLRAEDTAVYYCARDNWDAMDYWGQGTLVTVSS VL: DIQMTQSPSSLSASVGDRVTITCRSSQSLVHNNANTYLHWYQQKPGKAPKLLIYKVSNRFSGVPSRFSGSGSGTDFTLTISSLQPEDFATYYCSQNTLVPWTFGQGTKVEIKR
Readout value: no binding
